Hey, just so you know, these numbers are from PubChem BioAssay (NCI).

Please go through the items and note down their TGI.
Test system: HCC-2998 colon
test: NCI tumour cell line growth inhibition, 48 h
Numbers only, in µM.

O=C1C=C(N2CCN(CCOCCO)CC2)C(=O)c2c(O)ccc(O)c21: 6.95
O=C(NCCCCCN1CCC2(CCCCC2)CC1)C(C1CCCCC1)C1CCCCC1: 2.57

Ask: Item under review: CC(C)(C)Sc1nnc(SC(C)(C)C)c2c(=O)[nH]nc(SC(C)(C)C)c12 . Reported TGI?
Reply: 23.9

====

Please go through the items and note down their GI50.
System: SK-MEL-5 melanoma
test: NCI tumour cell line growth inhibition, 48 h
Where a SMILES comes first, the peptide text is derived from it. The star is where a group is joined. Trt = c1ccc(C(c2ccccc2)(c2ccccc2)*)cc1; Cbz = O=C(OCc1ccccc1)*

Look over these answered cases.
C=CC(C)(O)CC/C=C(\CO)C(=O)OC1C(C)OC(O[C@](C)(C=C)CC/C=C(\CO)C(=O)O[C@H]2C[C@@]3(C(=O)OC4OC(CO)C(O)C(O)C4OC4OC(C)C(OC5OC(CO)C(O)C5O)C(OC5OC(CO)C(O)C(O)C5O)C4O)C(CC2(C)C)C2=CCC4[C@@]5(C)CC[C@H](OC6OC(COC7OC(C)C(O)C(O)C7OC7OCC(O)C(O)C7O)C(O)C(O)C6NC(C)=O)C(C)(C)C5CC[C@@]4(C)[C@]2(C)C[C@H]3O)C(O)C1O (stereo partly drawn): 1.99 µM
O=C(C=C=Nc1ccccc1)C(=O)N=C=Cc1ccccc1: 5.16 µM
Cn1cc(C2=C(c3cn(CCCCC(=N)N)c4ccccc34)C(=O)NC2=O)c2ccccc21: > 23.6 µM

Give one value of GI50 per listed compound.
1. CN=C(N)N/N=C(\C)c1ccc2c(c1)Cc1ccccc1-2
2. Nc1nc(N)c2c(n1)NC(c1sc(Cl)nc1Cl)CC(c1ccc3c(c1)OCO3)=N2 (stereo not drawn)
3. NC(=O)c1ccc(N(C(N)=O)c2c(F)cccc2F)nc1-c1ccc(F)cc1F

Reply:
["1.61 µM", "3.43 µM", "> 100 µM"]

Give one value of GI50 per listed compound.
1. COc1cc(/C=N/NC(=O)c2ccccc2Nc2cccc(C(F)(F)F)c2)cc(OC)c1OC
2. COc1ccc(C2=NC(c3ccc(Cl)cc3)C(c3ccc(Cl)cc3)N2C(=O)N2CCNC(=O)C2)c(OC(C)C)c1 (stereo not drawn)

Reply:
["2.93 µM", "1.76 µM"]

Give one value of GI50 per listed compound.
1. Nc1c(C(=O)Nc2cccc3ccccc23)sc2nc3c(cc12)C(=O)CCC3
2. CC(/C=N/N=C(N)N)=N\N=C(N)N
3. COC(=O)C(CSC(c1ccccc1)(c1ccccc1)c1ccccc1)NC(=O)C(CC(N)=O)NC(=O)OCc1ccccc1 (stereo not drawn) (Cbz-Asn-Cys(Trt)-OMe; configuration not given here)
4. CN1CCN(c2ccc3nc(-c4ccc(OCCCCN5CCN(CCCCN6C(=O)c7cccc8cccc(c78)C6=O)CC5)cc4)[nH]c3c2)CC1

Reply:
["0.333 µM", "> 79.5 µM", "3.23 µM", "18.8 µM"]

Ask: Item under review: O=C1/C(=C\c2ccccc2)C2OCC=C3CN4CCC56c7ccccc7N1C5C2C3CC46 (stereo not drawn) . Reported GI50?
Reply: 4.84 µM
